Recorded MBC/MIC by entry
# System: Pseudomonas aeruginosa ATCC 15442
# Test details: Broth dilution MIC/MBC, reference strain
# Assay type: cell-based
# Applied conditions: P. a. ATCC 15442

Cc1cc(S(=O)(=O)NC(=O)CCC2CCCCC2)c(SCc2ccc(C(F)(F)F)cc2)cc1Cl [Compound 9] :: >1
Cc1cc(S(=O)(=O)NC(=O)C=Cc2ccccc2)c(SCc2ccc(C(F)(F)F)cc2)cc1Cl [Compound 14] :: 2
Cc1cc(S(=O)(=O)NC(=O)C=Cc2ccccc2)c(SCc2ccccc2)cc1Cl [Compound 13] :: >1

Now turn to the next compound.
-- ask Identify MBC/MIC associated with the compound Cc1cc(S(=O)(=O)NC(=O)CCC2CCCCC2)c(SCc2cccc(C(F)(F)F)c2)cc1Cl [Compound 10]
-- reply >1

----------
# System: HeLa (cervical cancer)
# Test details: MTT cell viability assay
# Assay type: cell-based
# Applied conditions: Homo sapiens, 72 h incubation, mean ± SD
So basically, if IC50 comes in under 90 µM it's class 1, and if it's 90 µM or more it's class 0.

Observe how each entry below is paired with its result.
Cc1cc(S(=O)(=O)NC(=O)CCC2CCCCC2)c(SCc2cccc(C(F)(F)F)c2)cc1Cl [Compound 10] :: class 0
Cc1cc(S(=O)(=O)NC(=O)CCC2CCCCC2)c(SCc2cccc3ccccc23)cc1Cl [Compound 11] :: class 1
Cc1cc(S(=O)(=O)NC(=O)C=Cc2ccccc2)c(SCc2ccc(C(F)(F)F)cc2)cc1Cl [Compound 14] :: class 0

-- ask Just wondering, is IC50 of Cc1cc(S(=O)(=O)NC(=O)C=Cc2ccccc2)c(SCc2cccc(C(F)(F)F)c2)cc1Cl [Compound 15] below 90 µM?
-- reply class 0

----------
# Tested on: Staphylococcus aureus ATCC 43300 (MRSA)
# Test details: Broth dilution MIC/MBC, reference strain
# Type: cell-based
# Applied conditions: Staphylococcus aureus; S. aureus ATCC 43300; read-out: MIC
Observed property: MIC (µg/mL)
Give just the number in µg/mL; leave the unit off.

Cc1cc(S(=O)(=O)NC(=O)CCC2CCCCC2)c(SCc2cccc(C(F)(F)F)c2)cc1Cl :: 8
Cc1cc(S(=O)(=O)NC(=O)CCC2CCCCC2)c(SCc2ccc(C(F)(F)F)cc2)cc1Cl :: 4

-- ask Identify MIC associated with the molecule Cc1cc(S(=O)(=O)NC(=O)C=Cc2ccccc2)c(SCc2cccc(C(F)(F)F)c2)cc1Cl
-- reply 8

----------
# Tested on: Escherichia coli ATCC 11229
# Test details: Broth dilution MIC/MBC, reference strain
# Format: cell-based
# Applied conditions: E. c. ATCC 11229
Observed property: MBC/MIC

Example entries begin here.
Cc1cc(S(=O)(=O)NC(=O)C=Cc2ccccc2)c(SCc2cccc(C(F)(F)F)c2)cc1Cl :: 1
Cc1cc(S(=O)(=O)NC(=O)CCC2CCCCC2)c(SCc2ccc(C(F)(F)F)cc2)cc1Cl :: >1
Cc1cc(S(=O)(=O)NC(=O)CCC2CCCCC2)c(SCc2cccc(C(F)(F)F)c2)cc1Cl :: >1

-- ask Identify MBC/MIC associated with the molecule Cc1cc(S(=O)(=O)NC(=O)CCC2CCCCC2)c(SCc2cccc3ccccc23)cc1Cl
-- reply >1

-- ask Identify MBC/MIC associated with the molecule Cc1cc(S(=O)(=O)NC(=O)CCC2CCCCC2)c(SCc2ccc3ccccc3c2)cc1Cl
-- reply >1

-- ask Identify MBC/MIC associated with the molecule Cc1cc(S(=O)(=O)NC(=O)C=Cc2ccccc2)c(SCc2ccccc2)cc1Cl
-- reply >1

-- ask Identify MBC/MIC associated with the molecule Cc1cc(S(=O)(=O)NC(=O)C=Cc2ccccc2)c(SCc2ccc(C(F)(F)F)cc2)cc1Cl
-- reply 1
